Target: Human recombinant full length HDAC6 (Homo sapiens (Human))
Sequence (Q9UBN7 whole entry): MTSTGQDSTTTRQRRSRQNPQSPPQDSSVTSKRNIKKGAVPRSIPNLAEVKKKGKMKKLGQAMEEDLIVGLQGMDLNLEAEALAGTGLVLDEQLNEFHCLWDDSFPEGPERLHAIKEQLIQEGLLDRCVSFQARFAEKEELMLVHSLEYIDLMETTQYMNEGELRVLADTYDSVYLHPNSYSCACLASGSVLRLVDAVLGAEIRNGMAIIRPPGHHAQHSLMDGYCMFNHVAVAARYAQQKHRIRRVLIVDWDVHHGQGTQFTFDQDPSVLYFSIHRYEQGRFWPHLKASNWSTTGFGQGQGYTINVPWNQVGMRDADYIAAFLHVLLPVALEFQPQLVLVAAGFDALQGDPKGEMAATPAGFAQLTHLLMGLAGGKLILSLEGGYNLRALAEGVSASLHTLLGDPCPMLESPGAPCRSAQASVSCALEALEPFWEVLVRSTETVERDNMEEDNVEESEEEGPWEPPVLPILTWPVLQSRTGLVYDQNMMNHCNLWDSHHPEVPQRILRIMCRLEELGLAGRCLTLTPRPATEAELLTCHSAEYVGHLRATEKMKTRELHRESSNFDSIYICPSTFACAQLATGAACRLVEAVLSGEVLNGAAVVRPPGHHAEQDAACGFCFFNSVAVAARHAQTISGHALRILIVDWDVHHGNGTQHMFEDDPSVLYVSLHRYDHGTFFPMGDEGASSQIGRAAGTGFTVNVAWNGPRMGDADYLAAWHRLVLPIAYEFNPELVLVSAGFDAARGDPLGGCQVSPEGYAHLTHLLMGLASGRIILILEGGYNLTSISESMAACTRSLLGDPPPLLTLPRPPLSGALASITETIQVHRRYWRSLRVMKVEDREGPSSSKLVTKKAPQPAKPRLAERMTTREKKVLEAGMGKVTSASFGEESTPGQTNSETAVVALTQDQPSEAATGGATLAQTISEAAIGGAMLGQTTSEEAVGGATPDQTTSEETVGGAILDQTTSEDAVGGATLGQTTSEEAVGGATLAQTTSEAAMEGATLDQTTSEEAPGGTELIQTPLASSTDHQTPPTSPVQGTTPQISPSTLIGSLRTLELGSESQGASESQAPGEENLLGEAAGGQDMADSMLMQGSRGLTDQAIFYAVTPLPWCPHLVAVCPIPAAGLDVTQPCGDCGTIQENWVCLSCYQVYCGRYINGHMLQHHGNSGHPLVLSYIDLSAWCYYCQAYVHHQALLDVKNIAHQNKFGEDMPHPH
Test: Test 4: HDAC6 assay
Type: biochemical
Settings: Test 4; substrate 5 μM acetyl-Gly-Ala-Lys(acetyl)-AMC
Description: Control wells with HDAC4 only (positive control) and without HDAC4 (negative control) were included on the microplate. Bovine trypsin (4.5 μl of a 300 nM solution) was added and the plate incubated for additional 15 minutes at room temperature. The plate was placed in a fluorescence microplate reader, and read at an excitation wavelength of 360 nm and an emission wavelength of 450 nm with a 10 nm bandpath. […]
MEASURED_METRIC: IC50

Recorded results for 6 compounds are shown here.
CN1C(C)(C)CC(NC(=O)c2ccc(-c3noc(C(F)(F)F)n3)cc2)CC1(C)C [Example 65]: 4.6 µM
C[C@H](CN1CCCC1)NC(=O)c1ccc(-c2noc(C(F)(F)F)n2)cc1 [Example 130]: 9.1 µM
N#Cc1cc(NC(=O)c2ccc(-c3noc(C(F)(F)F)n3)cc2)ccn1 [Example 73]: 6.1 µM
O=C(NC1CCNCC1)c1ccc(-c2noc(C(F)(F)F)n2)cc1 [Example 76]: 3.9 µM
O=C(Nc1ccnc(F)c1)c1ccc(-c2noc(C(F)(F)F)n2)cc1 [Example 71]: > 10 µM
O=C(NC1CCCC1)c1ccc(-c2noc(C(F)(F)F)n2)cc1 [Example 29]: > 10 µM

List IC50 for every entry below, keeping the order given.
1. CCN(CC)C[C@H](C)NC(=O)c1ccc(-c2noc(C(F)(F)F)n2)cc1F [Example 127]
2. CC(C)[C@H](CN(C)C)NC(=O)c1ccc(-c2noc(C(F)(F)F)n2)cc1 [Example 84]
3. CN1CCC(CNS(=O)(=O)c2ccc(-c3noc(C(F)(F)F)n3)cc2)C1 (stereo not drawn) [Example 115]
4. CNC(=O)CNC(=O)c1ccc(-c2noc(C(F)(F)F)n2)cc1 [Example 63]
5. C[C@@H](CN(C)C)NC(=O)c1ccc(-c2noc(C(F)(F)F)n2)cc1 [Example 82]
6. O=C(NC1CCCNC1)c1ccc(-c2noc(C(F)(F)F)n2)cc1 (stereo not drawn) [Example 79]

> 10 µM
> 10 µM
> 10 µM
> 10 µM
> 10 µM
> 10 µM
